assay: NCI Yeast Anticancer Drug Screen. Data for the bub3 strain (AID 167); conditions: S. cerevisiae bub3 mutant strain, at 5.0 µM (retest, dose inferred, filed as 0.5), hits give high values
About 79,000 compounds went through this panel and 15% of them were active in at least one assay; those are over-represented in the sample as a whole. Active and inactive are the calls of the source. Cut-off read from the data, not from the text of the source: active = growth inhibition above about 70%; inactive = the rest.
Reported metric: growth inhibition

Given O=C(OCc1ccccc1)C(O)c1ccccc1 (stereo not drawn) , state its recorded growth inhibition.
-3% (inactive)

Given the entry COC(=O)C1C(C(=O)OC)C2(OC(c3ccc(Cl)cc3)=CC2=O)C12OC(c1ccc(Cl)cc1)=CC2=O (stereo not drawn) , report its measured growth inhibition.
-1% (inactive)

Tell me the measured growth inhibition of "Cc1cc(SCc2ccccc2)cc(C)[o+]1" , please.
-2% (inactive)

What does the record list as growth inhibition for "N#Cc1cccc2c1Sc1ccccc1N2" ?
-26% (inactive)

Which measured growth inhibition value corresponds to "O=S(=O)(CCCl)Cc1ccccc1" ?
-69% (inactive)

What value of measured growth inhibition is listed for "O=P1(Cc2ccccc2)c2ccccc2-c2ccccc21" ?
-33% (inactive)

I have this compound here, "C/C(=N\O)c1ccc2c3c(ccc([N+](=O)[O-])c13)CC2" , and I need its recorded growth inhibition.
0% (inactive)

Request the reported growth inhibition associated with "COc1ncc(Br)cc1C(=O)NCCc1ccc(S(=O)(=O)NC(=O)NC2CCCCC2)cc1"
18% (inactive)

Which value of growth inhibition has been reported for O=C(NCc1ccccc1)C1C(=O)N(Cc2ccccc2)C(=O)/C1=N/O (stereo not drawn) in the records?
2% (inactive)

Entry "O=C1c2ccccc2C(=O)c2cc(O)ccc21" : reported growth inhibition = ?
44% (inactive)

Suppose we examine the compound CC1CN(CC2CCCCCCCCCCC2=O)CC(C)O1 (stereo not drawn) ; what growth inhibition value has been reported?
67% (inactive)

Suppose we examine the compound "[Cu+2].[NH-]c1ccccc1O.[NH-]c1ccccc1[OH2+]" ; what growth inhibition value has been reported?
45% (inactive)

Which growth inhibition is listed for "CN1CCN(CC(C(=O)O)(c2ccccc2)c2ccccc2)CC1" ?
0% (inactive)

So what does the record say about growth inhibition for C/C(=C/C(=O)N1c2ccccc2CC1c1c[nH]c2ccccc12)C(=O)O (stereo not drawn) ?
-4% (inactive)

# lookup: growth inhibition of "O=C(CC(O)(CC(=O)OCc1ccccc1)C(=O)OCc1ccccc1)OCc1ccccc1"
-1% (inactive)

Reported growth inhibition, compound "C[C@]12CC[C@H](O)C[C@@H]1CC[C@@H]1[C@@H]2CC[C@]2(C)C=CC[C@@H]12" : ____
9% (inactive)

What measured growth inhibition goes with "COc1cc(CCN=Cc2cc(Cl)cc(Cl)c2O)c([N+](=O)[O-])cc1OC" ?
51% (inactive)

Any idea what growth inhibition was measured for N#CC(CC(=O)O)C(c1cccc2ccccc12)c1cccc2ccccc12 (stereo not drawn) ?
17% (inactive)

Reported growth inhibition for "O=C(/C=C(/Nc1ccccc1)C(=O)c1ccccc1)c1ccccc1" : what is it?
13% (inactive)

Value lookup for growth inhibition; key = CC(C)(C)OC(=O)NCCNC(=O)CN(CC(=O)O)C1CCCCC1N(CC(=O)O)CC(=O)O (stereo not drawn)
0% (inactive)

For COc1ccc(C(c2cc3c(cc2O)OCO3)N2CCOCC2)c(OC)c1OC (stereo not drawn) , what is its reported growth inhibition?
0% (inactive)

If you can, please state the reported growth inhibition value of "CS(=O)(=O)OCCN(CCOS(C)(=O)=O)c1ccc(N=Nc2ccccc2)cc1" .
56% (inactive)

Entry "Fc1cccc2c1cc1ccc3cccc4ccc2c1c34" has what growth inhibition?
0% (inactive)

----------
assay: NCI Yeast Anticancer Drug Screen. Data for the sgs1 mgt1 strain (AID 161);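 note: 0% = growth of cultures given vehicle only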; conditions: S. cerevisiae sgs1 mgt1 strain, at 50.0 µM (retest, dose inferred, filed as 5.0), hits give high values
About 79,000 compounds went through this panel and 15% of them were active in at least one assay; those are over-represented in the sample as a whole.
I'd be grateful if you could share measured growth inhibition for these entries.
Dear colleague, please return just the value in %, with no unit written.

Need growth inhibition, item CN(C)C1CCC2C3CCC4=CC(=O)CCC4(C)C3CCC21C (stereo unspecified)
39

growth inhibition for N#CC(Cc1ccc(CC(C#N)(c2ccccc2)c2ccccn2)cc1)(c1ccccc1)c1ccccn1 (stereo unspecified) ?
-1

Fill in the blank: the reported growth inhibition of CCC1(O)c2ccccc2C(O)(CC)c2ccccc21 (stereo unspecified) is ____.
53

Quick one: growth inhibition for OCC(O)C(O)C(O)C(O)c1cnn(-c2ccccc2)n1 (stereo unspecified) ?
-5

# lookup: growth inhibition of O=C1C2C3C=CC(C3)C2C(=NS(=O)(=O)c2ccccc2)C2C3C=CC(C3)C12 (stereo unspecified)
14

Endpoint output: growth inhibition of "S=c1[nH]c2ccc(Br)cc2c(=S)n1-c1ccccc1" . Value?
24

----------
Assay: NCI Yeast Anticancer Drug Screen. Data for the mec2-1 strain (AID 157)
Details: S. cerevisiae mec2-1 strain, at 50.0 µM (retest, dose inferred, filed as 5.0), hits give high values
Procedure: Growth inhibition of yeast strains with defined genetic alterations is measured as a screen for potential anti-cancer activity. Selected strains with alterations in DNA damage repair or cell cycle control were exposed to compounds and growth inhibition was measured relative to vehicle treated controls. The strain used in this assay is mec2-1
About 79,000 compounds went through this panel and 15% of them were active in at least one assay; those are over-represented in the sample as a whole.
I'd be grateful if you could share measured growth inhibition for these entries.
Give the number; % is assumed, so skip it.

Item Cc1c(N)nc(C2CC(=O)N2CC(N)C(N)=O)nc1C(=O)NC(C(=O)NC(C)C(O)C(C)C(=O)NC(C(=O)NCCc1nc(-c2nc(C(=O)NCCCNC3CCCC3)cs2)cs1)C(C)O)C(OC1OC(CO)C(O)C(O)C1OC1OC(CO)C(O)C(OC(N)=O)C1O)c1cnc[nH]1 (centres undefined) has what recorded growth inhibition?
99

Given "COc1ccc2ccc(OC)c(C=O)c2c1" , state its recorded growth inhibition.
-111

Query: growth inhibition; subject: "CS(=O)(=O)C(c1nc2nnc(NC(=O)Nc3ccc(Cl)cc3)n2[nH]c1=O)c1nc2nnc(NC(=O)Nc3ccc(Cl)cc3)n2[nH]c1=O"
23

Could you tell me which growth inhibition is on file for CC1(C)OC2C(COC(c3ccccc3)(c3ccccc3)c3ccccc3)OC(n3cnc4c(N)ncnc43)C2O1 (centres undefined) ?
99

Quick one: growth inhibition of O=C(CCN1CCCCC1)N1CCc2c([nH]c3ccccc23)C1c1cccnc1 (centres undefined) ?
16

# query: growth inhibition of entry "Nc1ccccc1CC(c1c[nH]c2ccccc12)c1c[nH]c2ccccc12"
17

What value of growth inhibition has been reported for the following compound? "Cc1c(F)c(C)c(C(=O)O)c(C)c1F"
98

Entry under review: "COc1ccc(Cc2cncc3c(O)c(OC)ccc23)cc1O" . Reported growth inhibition?
50

I have this compound here, "O=C(O)C(SC1=NNC2(C(=O)N1)c1ccccc1-c1ccccc12)SC1=NNC2(C(=O)N1)c1ccccc1-c1ccccc12" , and I need its recorded growth inhibition.
92

----------
assay: NCI Yeast Anticancer Drug Screen. Data for the mlh1 rad18 strain (AID 175); conditions: S. cerevisiae mlh1 rad18 strain growth inhibition; at 50.0 µM; hits give high values
This is part of a sample that, as a whole, favours compounds with a hit. Of some 79,000 tested, about 15% had one in any assay. Where a SMILES comes first, the peptide text is derived from it. The star is where a group is joined. Trt = c1ccc(C(c2ccccc2)(c2ccccc2)*)cc1; Cbz = O=C(OCc1ccccc1)*
// label = MET if growth inhibition is not less than 80%, otherwise NOT MET

growth inhibition >= 80% for Cc1ccc(NC(=O)CC2SC(=Nc3ccc(Cl)cc3)NC2=O)cc1C (stereo not given) ?
MET

In plain terms: is recorded growth inhibition at least 80% for "O=C(CBr)N1c2ccccc2Sc2ccc3ccccc3c21" ?
MET

# check: growth inhibition of COc1ccc(/C=C/C(=N/NC(=O)c2ccccc2)C(C)CN(C)C)cc1 (stereo not given) is greater than or equal to 80%
NOT MET

I'd appreciate it if you could say whether "C=CCNC(=O)c1ccccc1C(=O)O" has growth inhibition at least equal to 80%.
NOT MET

Quick check: does "Oc1ccc(N(Cc2ccccc2)Cc2ccccc2)cc1" have growth inhibition greater than or equal to 80%?
MET

Check if growth inhibition >= 80% (inclusive). Item: C[N+]1(Cc2ccc([N+](=O)[O-])cc2)CCC[C@H]1c1ccc[n+](Cc2ccc([N+](=O)[O-])cc2)c1 (stereo not given in full)
MET

Tell me whether growth inhibition is at least 80% here: "C/C(=N\O)c1ccc2c3c(ccc([N+](=O)[O-])c13)CC2"
MET

Hi, just wondering whether COC12C(COC(N)=O)C3=C(C(=O)C(C)=C(N)C3=O)N1CC1C2N1C(=O)/C=C/c1ccccc1 (stereo not given) shows growth inhibition of 80% or higher.
MET

Could you tell me if the measured growth inhibition of CC(NNC(=S)N1CCCC1)c1ccccn1 (stereo not given) reaches 80% or more?
MET

Does growth inhibition meet or surpass 80% for Cc1ccc(S(=O)/C=C/S(=O)(=O)c2ccc(C)cc2)cc1 (stereo not given) ?
MET

Decide: is the reported value of growth inhibition for COc1cc(C2c3cc4c(cc3C(OC3CCCCO3)C3COC(=O)C23)OCO4)cc(OC)c1OC (stereo not given) equal to or greater than 80%?
NOT MET

For this compound, is measured growth inhibition 80% or higher? CC(C(=O)N1C(=O)N(C(=O)C(C)C(O)c2ccccc2)C(c2ccccc2)C1c1ccccc1)C(O)c1ccccc1 (stereo not given)
MET

Can "Cc1cc(O)c(C=NC(=S)C(N)=S)c(=O)o1" be said to have growth inhibition at or above 80%?
NOT MET

Check if growth inhibition >= 80% (inclusive). Item: "Oc1ccc(Cl)cc1-c1ccccc1"
MET

Is it the case that N=C(N)SC1c2ccccc2-c2ccc(N)cc21 (stereo not given) has growth inhibition reaching or exceeding 80%?
MET

Threshold query (growth inhibition >= 80%) on "CNc1c(C(=O)Nc2ccccc2)c(=O)n(C)c(=O)n1C"
NOT MET

Could you tell me if the measured growth inhibition of "CN(C)C=C1C(Cl)=C(C=O)CC(C=O)=C1Cl" reaches 80% or more?
MET

Please indicate if the recorded growth inhibition for "Cc1c2ccccc2c(=O)n2c(-c3ccccn3)cccc12" meets or exceeds 80%.
NOT MET

hey, is growth inhibition for this one >= 80%? "ClCCOCCOc1c(Cl)cc(Cl)c(Cl)c1Cl"
NOT MET

Record "CCOC(=O)c1cc(C)c(O)c(C(=O)OCC)c1" ; criterion: growth inhibition no lower than 80%. Met?
NOT MET

Could you tell me if the measured growth inhibition of NC1=NC2=C(CCCC2)C(c2cccs2)S1 (stereo not given) reaches 80% or more?
NOT MET

Please indicate if the recorded growth inhibition for "ONC1=Nc2ccccc2OCc2cc(Br)c(Br)cc2COc2ccccc2N=C1NO" meets or exceeds 80%.
MET

Is it the case that "O=C(Cc1nc2ccc([N+](=O)[O-])cc2[nH]c1=O)C(=O)Nc1cc(Cl)c(Cl)cc1Cl" has growth inhibition reaching or exceeding 80%?
NOT MET

Confirm if growth inhibition reported for the compound "C[C@]12C/C(=C/C(F)(F)F)C(=O)C[C@@H]1CC[C@@H]1[C@@H]2CC[C@]2(C)[C@@H](C(=O)O)CC[C@@H]12" is 80% or above.
NOT MET

Item CC1c2cc(c3c(c2O)CN([C@@H](C)C2CCCCC2)CO3)C(C)c2cc(c3c(c2O)CN([C@@H](C)C2CCCCC2)CO3)C(C)c2cc(c3c(c2O)CN([C@@H](C)C2CCCCC2)CO3)C(C)c2cc1c1c(c2O)CN([C@@H](C)C2CCCCC2)CO1 (stereo not given in full) with growth inhibition of 80% or above?
NOT MET

// inclusive: growth inhibition at least 80%? input: "COc1ccc(C(c2ccc(N(C)C)cc2)c2ccc(N(C)C)cc2)cc1"
NOT MET

Item "Cc1c(C(=O)N(CCO)CCO)[n+](=O)c2ccccc2n1[O-]" with growth inhibition of 80% or above?
NOT MET

Evaluate "O=C1C=CC(=O)N1c1ccccc1[N+](=O)[O-]" : growth inhibition at minimum 80%?
MET

Tell me whether growth inhibition is at least 80% here: O=C1C(Cl)C(c2cc(Br)cc(Br)c2O)N1n1cnc2ccccc2c1=O (stereo not given)
MET

Hi team, for NC(=S)c1cccc(C2Nc3ccccc3O2)c1 (stereo not given) , is the recorded growth inhibition at or above 80%?
NOT MET

# bool: growth inhibition of "O=C(Cn1nnc2ccccc21)N1CCN(c2ccccc2)CC1" >= 80%
NOT MET

Determine whether measured growth inhibition meets or exceeds 80% for CCCCCCCCCCCCNC(=O)OCC(C)O (stereo not given) (tested in a mixture with another compound)
MET

Please indicate if the recorded growth inhibition for CCN1CCC(O)(/C=C/c2ccc(Cl)c(Cl)c2)C(C(=O)/C=C/c2ccc(Cl)c(Cl)c2)C1 (stereo not given) meets or exceeds 80%.
MET

Does CCOC(=O)CCC(NC(=O)C(CSC(c1ccccc1)(c1ccccc1)c1ccccc1)NC(=O)OCc1ccccc1)C(=O)NC(CCC(=O)OCC)C(=O)NC(CCC(=O)OCC)C(=O)NC(CCC(=O)OCC)C(=O)NC(CSC(c1ccccc1)(c1ccccc1)c1ccccc1)C(=O)OC (stereo not given) (Cbz-C(Trt)E(OEt)E(OEt)E(OEt)E(OEt)C(Trt)-OMe; configuration not given here) have a reported growth inhibition of at least 80%?
NOT MET

Does "Fc1cccc2c1cc1ccc3cccc4ccc2c1c34" have a reported growth inhibition of at least 80%?
MET

Confirm if growth inhibition reported for the compound CCCCCOC(=O)C1C(=O)CC(c2ccccc2)C1c1ccccc1 (stereo not given) is 80% or above.
NOT MET

Answer whether growth inhibition of "CC1=C(CO)C(=O)O[C@@H]([C@@H](C)[C@H]2CC[C@H]3[C@@H]4C[C@@H](O)C5=CC=CC(=O)[C@]5(C)[C@H]4CC[C@]23C)C1" is greater than or equal to 80%.
MET

Does the compound "COC(=O)CCCCCCCCCCC(=O)O" have recorded growth inhibition that is 80% or more?
NOT MET
